- system-name: T1, TNFR1 (Homo sapiens, UniProt P19438)
- T1 chain: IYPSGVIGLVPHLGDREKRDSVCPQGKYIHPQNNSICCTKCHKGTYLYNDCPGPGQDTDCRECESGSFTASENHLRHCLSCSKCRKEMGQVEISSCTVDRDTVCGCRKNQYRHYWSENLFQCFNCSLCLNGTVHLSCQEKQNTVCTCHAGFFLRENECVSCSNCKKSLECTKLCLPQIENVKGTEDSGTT
- test-method-notes: yeast display SC50
readout: apparent Kd (screen) (nM)

binder	output-unit	endpoint-value
V55D (designed binder) MTLQELLREEALRRAEAEAFRYALELLAEKFPEQKEYLLDLAEEIESQIRSLSGDDVEDVRKFLDKEWAWVKELLAEHPAELAEVEAARAARLAELRAEVEAKVAA	nM	9.41
V85E (designed binder) MTLQELLREEALRRAEAEAFRYALELLAEKFPEQKEYLLDLAEEIESQIRSLSGVDVEDVRKFLDKEWAWVKELLAEHPAELAEEEAARAARLAELRAEVEAKVAA	nM	1.05
A83C (designed binder) MTLQELLREEALRRAEAEAFRYALELLAEKFPEQKEYLLDLAEEIESQIRSLSGVDVEDVRKFLDKEWAWVKELLAEHPAELCEVEAARAARLAELRAEVEAKVAA	nM	0.869
A42H (designed binder) MTLQELLREEALRRAEAEAFRYALELLAEKFPEQKEYLLDLHEEIESQIRSLSGVDVEDVRKFLDKEWAWVKELLAEHPAELAEVEAARAARLAELRAEVEAKVAA	nM	3
W68N (designed binder) MTLQELLREEALRRAEAEAFRYALELLAEKFPEQKEYLLDLAEEIESQIRSLSGVDVEDVRKFLDKENAWVKELLAEHPAELAEVEAARAARLAELRAEVEAKVAA	nM	12.5
E86C (designed binder) MTLQELLREEALRRAEAEAFRYALELLAEKFPEQKEYLLDLAEEIESQIRSLSGVDVEDVRKFLDKEWAWVKELLAEHPAELAEVCAARAARLAELRAEVEAKVAA	nM	0.653
L41S (designed binder) MTLQELLREEALRRAEAEAFRYALELLAEKFPEQKEYLLDSAEEIESQIRSLSGVDVEDVRKFLDKEWAWVKELLAEHPAELAEVEAARAARLAELRAEVEAKVAA	nM	1.16
A83Y (designed binder) MTLQELLREEALRRAEAEAFRYALELLAEKFPEQKEYLLDLAEEIESQIRSLSGVDVEDVRKFLDKEWAWVKELLAEHPAELYEVEAARAARLAELRAEVEAKVAA	nM	0.718
